- system.tested: OXSR1 (human) (UniProt O95747)
- Sequence (O95747 whole entry, looked up): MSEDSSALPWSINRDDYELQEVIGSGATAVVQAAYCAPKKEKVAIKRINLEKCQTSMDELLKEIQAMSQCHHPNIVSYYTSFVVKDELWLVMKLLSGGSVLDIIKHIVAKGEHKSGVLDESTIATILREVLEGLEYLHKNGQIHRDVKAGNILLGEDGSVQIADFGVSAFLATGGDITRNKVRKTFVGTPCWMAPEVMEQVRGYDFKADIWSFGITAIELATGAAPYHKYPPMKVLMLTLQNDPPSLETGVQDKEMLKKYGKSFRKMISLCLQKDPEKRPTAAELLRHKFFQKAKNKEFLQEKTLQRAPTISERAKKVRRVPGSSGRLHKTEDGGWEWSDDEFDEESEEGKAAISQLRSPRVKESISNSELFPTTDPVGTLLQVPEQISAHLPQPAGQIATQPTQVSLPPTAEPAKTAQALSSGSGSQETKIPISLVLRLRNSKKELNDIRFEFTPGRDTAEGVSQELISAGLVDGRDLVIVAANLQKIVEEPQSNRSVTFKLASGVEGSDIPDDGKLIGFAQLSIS
- test.protocol: radiometric filter-binding kinase assay, Kinase HotSpot
- condition.context: compound 0.5 µM; ATP 10 µM
Entries annotated with measured residual activity

# entry.smiles, residual activity [%]
measured = [
    ("CCc1nc(-c2ccc(OC)cc2)[nH]c1-c1ccncc1", 97.7),
    ("O=C(c1ccccc1)c1ccc(N2CCOCC2)cc1O", 110),
    ("Cn1cc(/C=C2\\C(=O)Nc3ccc(S(N)(=O)=O)cc32)c2ccccc21", 93.7),
    ("O=c1cc(N2CCOCC2)oc2c(-c3ccccc3)cccc12", 118),
    ("O=c1[nH]c2ccccc2n1C1CCN(Cc2ccc(-c3nc4cc5[nH]cnc5cc4nc3-c3ccccc3)cc2)CC1", 102),
    ("N#Cc1c(NC(=O)c2cccc3ccccc23)sc2c1CCCC2", 103),
    ("N/C(=N\\N=C/c1ccc(-c2cccc([N+](=O)[O-])c2)o1)N[N+](=O)[O-]", 102),
    ("O=S(=O)(NCCNC/C=C/c1ccc(Br)cc1)c1cccc2cnccc12", 95.9),
    ("COc1cc2c(Nc3ccc(Br)cc3F)ncnc2cc1OCC1CCN(C)CC1", 100),
    ("O=C(O)c1ccc2c3c1cccc3c(=O)n1c3ccccc3nc21", 104),
]

###

- system.tested: CSK (human)
- test.protocol: radiometric filter-binding kinase assay, Kinase HotSpot
- condition.context: compound 0.5 µM; ATP 10 µM
So basically: residual activity at 90% or higher? That is yes. Lower than 90%? That is no.

# entry.smiles, system.tested, assigned.class
data = [
    ("O=c1c(-c2ccc(F)cc2)c(-c2ccncc2)[nH]n1-c1ccc(Cl)cc1", "CSK (human)", "no"),
    ("CCc1nc(-c2ccc(OC)cc2)[nH]c1-c1ccncc1", "CSK (human)", "yes"),
    ("O=C(O)c1ccc2c3c1cccc3c(=O)n1c3ccccc3nc21", "CSK (human)", "yes"),
    ("N/C(=N\\N=C/c1ccc(-c2cccc([N+](=O)[O-])c2)o1)N[N+](=O)[O-]", "CSK (human)", "yes"),
    ("CCOc1cc2ncnc(Nc3cccc(Br)c3)c2cc1OCC", "CSK (human)", "yes"),
    ("O=S(=O)(NCCNC/C=C/c1ccc(Br)cc1)c1cccc2cnccc12", "CSK (human)", "yes"),
    ("Cc1cc(Nc2nc(-c3ccccc3)nc3ccccc23)n[nH]1", "CSK (human)", "yes"),
    ("O=c1[nH]c2ccccc2n1C1CCN(Cc2ccc(-c3nc4cc5[nH]cnc5cc4nc3-c3ccccc3)cc2)CC1", "CSK (human)", "yes"),
    ("CN[C@@H]1C[C@H]2O[C@@](C)([C@@H]1OC)n1c3ccccc3c3c4c(c5c6ccccc6n2c5c31)C(=O)NC4", "CSK (human)", "no"),
    ("N#C/C(=C1/Nc2ccccc2S1)c1ccnc(NCCc2cccnc2)n1", "CSK (human)", "yes"),
    ("O=C1NC(=O)c2c1c1c3ccccc3[nH]c1c1[nH]c3cc(Br)ccc3c21", "CSK (human)", "yes"),
    ("Nc1ncnc2c1cnn2-c1ccccc1", "CSK (human)", "no"),
    ("O=c1c2ccccc2[nH]c(=S)n1CCN1CCC(=C(c2ccc(F)cc2)c2ccc(F)cc2)CC1", "CSK (human)", "yes"),
    ("COc1cc2c(N3CCN(C(=O)Nc4ccc(OC(C)C)cc4)CC3)ncnc2cc1OCCCN1CCCCC1", "CSK (human)", "yes"),
    ("O=C(c1ccccc1)c1ccc(N2CCOCC2)cc1O", "CSK (human)", "yes"),
    ("COc1cc2c(Nc3ccc(Br)cc3F)ncnc2cc1OCC1CCN(C)CC1", "CSK (human)", "no"),
    ("FC(F)(F)c1ccc(/C=C/c2nc(COc3ccc(CCCCn4ccnn4)cc3)co2)cc1", "CSK (human)", "yes"),
]
